Tested on: CAKI-1 renal
Experiment: NCI-60 one-dose screen, 48 h
Settings: 10 µM unless noted
The panel holds about 83,000 compounds, 20% with a hit somewhere; the sample as a whole holds those more often. Active and inactive are the calls of the source. Rule for the calls: active = growth percent below 10; inactive = the rest.
Pick one: active, inactive

Input: Recorded call for CON=C1C[C@]2(C[C@@H]3C[C@@H](C/C=C(\C)C[C@@H](C)/C=C/C=C4\CO[C@@H]5[C@H](O)C(C)=C[C@@H](C(=O)O3)[C@]45O)O2)O[C@H](/C(C)=C/C(C)C)[C@H]1C ?
Output: inactive

Input: Assay result, entry CN([N-]C(=O)CC(=O)[N-]N(C)C(=S)c1ccccc1)C(=S)c1ccccc1.[Cu+2] — outcome?
Output: active

Input: Call for entry Cc1ccc(S(=O)(=O)N(c2ccc(Cl)cc2)c2ccc(Br)cc2C(=O)O)cc1 :
Output: inactive

Input: Which outcome was assigned to O=c1ccc2ccccc2o1 in this test?
Output: inactive

Input: Look up the recorded call for Cc1nc2cc(Nc3nc(Nc4ccc(F)cc4)nc(-c4ccc(Cl)cc4)n3)ccc2n1Cc1ccccc1 in this test.
Output: inactive

Input: Answer briefly: the call reported for O=C(CCCCCCC(=O)Nc1ccc2c(c1)/C(=C/c1ccc[nH]1)C(=O)N2)NO in this assay.
Output: active

Input: Answer briefly: the call reported for COc1cccc(OC(=O)c2ccccc2)c1OC(=O)c1ccccc1 in this assay.
Output: inactive

Input: Record request — test call for Cc1ccccc1-n1nnc(C(=O)Nc2ccc(-c3ccccc3)cn2)c1C
Output: inactive

Input: Hi team, can someone confirm the assay call for Oc1ccc2ccccc2c1C1NN=C(c2ccccc2)S1 (stereo not given) ?
Output: active

Input: Identify the outcome logged in this assay for the compound shown: COc1cc2oc(-c3ccc(O)cc3)cc(=O)c2c(O)c1I
Output: inactive

Input: Assay result, entry CCCCC1COc2cccc3c(SCC(=O)N(C)c4cccc5ccccc45)cc[n+]1c23 (stereo not given) — outcome?
Output: inactive

Input: For this compound, state the assay outcome: CCOc1ccc(-c2cnnn2-c2nonc2-n2cccc2)cc1
Output: inactive

Input: Identify the outcome logged in this assay for the compound shown: Cc1cc(O)cc2c1[C@H]1CC[C@]3(C)[C@@H](O)CC[C@H]3[C@@H]1C=C2
Output: inactive

Input: Dear all, I need the recorded test outcome for COc1ccc(Cn2c(Br)c3c(c2-c2cc(OC)c(OC)c(OC)c2)CCc2sc(N)nc2-3)cc1 , thank you.
Output: inactive

Input: What call does the record list for FC(F)(F)c1cc(CNc2nc(Cl)ncc2Br)cc(C(F)(F)F)c1 ?
Output: inactive

Input: Assay outcome for O=C1CCC(N2Cc3c(C#CCCCNC(=O)c4cc5c(o4)C(=O)c4ccccc4C5=O)cccc3C2=O)C(=O)N1 (stereo not given) : what was it?
Output: inactive

Input: # outcome recorded in this test, key = COc1ccc(-n2ncc3c2ccc2cc(S(=O)(=O)c4ccccc4)c(=O)n(C)c23)cc1
Output: inactive

Input: Recorded test outcome, item COc1ccc(/C=C2\SC(=O)N(CN3CCN(c4cc5c(cc4F)c(=O)c(C(=O)O)cn5C4CC4)CC3)C2=O)cc1
Output: inactive

Input: Record request — test call for Cc1nc2ccc(Cl)cc2n1C
Output: inactive

Input: Query: recorded result category for Cn1cc(C(=O)NCCC(=N)N)cc1NC(=O)CN=C(N)N in this test
Output: inactive

====

Tested on: MCF7 breast
Test: NCI-60 one-dose screen, 48 h (100 = growth as untreated, 0 = no growth, -100 = all killed)
Conditions: 10 µM unless noted
This is part of a sample that, as a whole, favours compounds with a hit. Of some 83,000 tested, about 20% had one in any assay.
Give growth for every item shown.
Write it as a number; the unit % goes unstated.

Param item: CCN1C(=O)C2(Nc3ccccc3S2)c2cc(C)ccc21 (stereo not given) ; param system: MCF7 breast; output growth: 101

O=C(NC1CC1)c1cc2n(n1)CC(c1ccccc1)N2 (stereo not given) on MCF7 breast gives growth = 85.9

growth of Nc1ccccc1-c1n[nH]c(=O)[nH]c1=O , assay on MCF7 breast, is 102

Form field growth for item CCSc1nnc2c3cc(Br)ccc3n(C)c2n1 on MCF7 breast: 84.3

Entry CON=C1C[C@]2(C[C@@H]3C[C@@H](C/C=C(\C)C[C@@H](C)/C=C/C=C4\CO[C@@H]5[C@H](O)C(C)=C[C@@H](C(=O)O3)[C@]45O)O2)O[C@H](/C(C)=C/C(C)C)[C@H]1C under MCF7 breast had growth of 42

The molecule COc1ccc(C(=O)C2=CC(=O)C(=O)C2)cc1OC , when measured on MCF7 breast, yielded growth of 95.9

MCF7 breast growth of CC1(C)N=C(N)N=C(N)N1c1cccc(/C=C/C=C/c2cccc([N+](=O)[O-])c2)c1 is 57.9

// returns growth for Cc1ccc(-c2nnc(COc3ccc(-c4nnc(N)s4)cc3)o2)cc1 with MCF7 breast; value = 68.3

Form: item COc1ccc(/C=N\N2CCOCC2)cc1OC1CCCC1 ; test system MCF7 breast; growth: 93.2

Record COc1cc(/C=C/C(=O)C2=C(/C=C/c3ccc(O)c(OC)c3)NC(=O)NC2c2ccc(O)c(OC)c2)ccc1O (stereo not given) ; system MCF7 breast; growth = 82.1

// growth (MCF7 breast) for COc1ccc(OC)c2ncccc12 = 84.8

# growth measured on MCF7 breast for item O=S(=O)(Nc1ncccn1)c1ccc(Nc2ccc3nnc(-c4ccncc4)n3n2)cc1 = 104

Recorded growth for C[C@@H](Oc1cc(-c2cnn(C3CC4(CCCNC4)C3)c2)cnc1N)c1c(Cl)ccc(F)c1Cl (stereo not given in full) on MCF7 breast was -14.5

// molecule COc1cc(/C=C/C(=O)CC(=O)/C=C/c2cc(Br)c(OC)c(OC)c2)cc(Br)c1OC , assay MCF7 breast, growth value: 97.4

Assay MCF7 breast, sample NS(=O)(=O)c1cc(Br)c2c(c1)S(=O)(=O)NCN2 , growth read: 97.4

Record Cc1nc2cc(Nc3nc(Nc4ccc(F)cc4)nc(-c4ccc(Cl)cc4)n3)ccc2n1Cc1ccccc1 has MCF7 breast growth equal to 42.4

MCF7 breast growth of NC(=O)c1nc2c([nH]c1=O)CCCC2 is 98.7

For the molecule COc1ccc(-n2c(SCc3cc(OC)c(OC)c(OC)c3)nc3ccc(C)cc3c2=O)c(OC)c1 , the measured growth on MCF7 breast was 15.5

Record for O=C(Nc1ccccc1O)c1ccc(NS(=O)(=O)c2cccc3cccnc23)cc1 under target or system MCF7 breast: growth reported as 42.3

Query COC(=O)c1c2c(c(C)[n+]([O-])c1C)C(=O)C=C(NCc1ccc(Cl)cc1)C2=O on MCF7 breast; growth returned: -63.2

====

Tested on: BT-549 breast
Experiment: NCI-60 one-dose screen, 48 h (100 = growth as untreated, 0 = no growth, -100 = all killed)
Details: 10 µM unless noted
This is part of a sample that, as a whole, favours compounds with a hit. Of some 83,000 tested, about 20% had one in any assay. Activity calls are given as the source filed them. How the source made its calls: active means growth percent below 10; inactive means the rest.
Kindly supply the reported growth values for the records listed here.

The reported growth value, BT-549 breast, for Cc1ccc(C2SCC(=O)N2NC(=O)c2[nH]c3ccc(F)cc3c2-c2ccccc2)cc1 (centres undefined) reads 93.2% (inactive)

The measured growth that COc1ccc2nc(-n3nc(C)cc3C)c(-n3nc(C)cc3C)nc2c1 showed for BT-549 breast is 104% (inactive)

CON=C1C[C@]2(C[C@@H]3C[C@@H](C/C=C(\C)C[C@@H](C)/C=C/C=C4\CO[C@@H]5[C@H](O)C(C)=C[C@@H](C(=O)O3)[C@]45O)O2)O[C@H](/C(C)=C/C(C)C)[C@H]1C on BT-549 breast gives growth = 89.2% (inactive)

Let me check: Cc1c(C(=O)Nc2nc(-c3ccccc3)cs2)nnn1-c1cccc2ccccc12 , system BT-549 breast, measured growth is 56.7% [50 µM] (inactive)

Entry Cc1nc2cc(Nc3nc(NCCO)nc(Nc4ccc(F)cc4)n3)ccc2n1Cc1ccccc1 ; assay system BT-549 breast; growth recorded at 101% (inactive)

Item: Clc1ccccc1Nc1ccc2nnc(-c3ccncc3)n2n1 | System: BT-549 breast | growth: 101% (inactive)

Short answer on BT-549 breast for O=c1c2cc(F)ccc2oc2c(NCCNCCO)nc3ccccc3c12 , growth: 79.8% (inactive)

Sample CCOC(=O)c1sc(NC(=O)CN2CCC(Cc3ccccc3)CC2)nc1C , system: BT-549 breast. Its growth is 104% (inactive)

For the compound CCN1CCN(c2nc3ccccc3c3c(=O)c4cc(F)ccc4sc23)CC1 , the measured growth on BT-549 breast was 85.7% (inactive)

====

Test system: SK-MEL-28 melanoma
Experiment: NCI-60 one-dose screen, 48 h (100 = growth as untreated, 0 = no growth, -100 = all killed)
Conditions: 10 µM unless noted
Compounds without any hit were thinned out: in the full panel of roughly 83,000, 20% have a hit.
For each of the compounds below, state its growth.
All answers are understood in %, so give the number only.

// field: growth; key: COc1ccc(C2SC(C)C(=O)N2CCc2cccs2)cc1OC (stereo unspecified) ; value = 108

growth reported for this compound C=C(C)COC(=O)c1ccccc1C(=O)OCC1(C)CO1 (stereo unspecified) : 117

response.value for CCCC1=NNC(=O)C1 (field: growth) = 104

Note to self: growth recorded for CCCCCCCCCCCCCCNc1nc(CO)ncc1-c1ccc(C(F)(F)F)cc1 was 108

Entry COc1ccc(-c2nc3sc(C)cn3c2/C=C/C(=O)c2cc(OC)c(OC)c(OC)c2)cc1 ; growth = 41.4

The value of growth measured for the compound O=C(O)C[C@H](O)C[C@H](O)/C=C/c1c(C2CC2)nc2ccccc2c1-c1ccc(F)cc1 turned out to be 113
